Taken from patent US11053204B2.

- Tested on: blackgrass (Alopecurus myosuroides)
- PROTOCOL: Test A postemergence, visual injury rating
- Type: in vivo
- CONDITION_SET: Alopecurus myosuroides, post-emergence, 240 h, 125 g ai/ha, 0 is no effect, 100 is complete control, read-out: Blackgrass plant response rating (0 to 100 scale)
Hi there, I'd appreciate the recorded pest or weed control at 125 g/ha for every entry that follows.
Only the number, expressed in %, is required.

Lookup: Returns the measured pest or weed control at 125 g/ha for the input molecule. Input: CC(CC(F)(F)F)OC(=O)c1c(Br)cccc1Oc1ncc(Cl)cn1 (centres unmarked)
Found: 20

Lookup: Returns the measured pest or weed control at 125 g/ha for the input molecule. Input: CCCOC(=O)c1c(Br)cccc1Oc1ncc(Cl)cn1
Found: 30

Lookup: Returns the measured pest or weed control at 125 g/ha for the input molecule. Input: O=C(OCCC(F)(F)F)c1c(Cl)cccc1Oc1ncc(Cl)cn1
Found: 90

Lookup: Returns the measured pest or weed control at 125 g/ha for the input molecule. Input: C=CCOC(=O)c1c(Br)cccc1Oc1ncc(Cl)cn1
Found: 60

Lookup: Returns the measured pest or weed control at 125 g/ha for the input molecule. Input: C=CCCOC(=O)c1c(Br)cccc1Oc1ncc(Cl)cn1
Found: 60
